Origin of values: paper PMC10054465

I'd be grateful if you could share measured melting point for these entries.

// sample Cc1cc2nnn(Cc3cccc(NC(=O)Nc4ccc(Cl)cc4)c3)c2cc1C , its melting point was 249 to 251 °C

Reported melting point ( COc1ccc(C(=O)Nc2ccc(Cn3nnc4c(F)cccc43)cc2)cc1 ) = 266 to 268 °C

get_value(item= Cc1ccc(C(=O)Nc2cccc(Cn3nnc4cc(Cl)c(Cl)cc43)c2)cc1 , readout=melting point) returns 199 to 200 °C

So for Cc1cc2nnn(Cc3ccc(N)cc3)c2cc1C [12b] , the logged melting point turned out to be 184 to 186 °C

Lab note: CC(=O)Nc1ccc(Cn2nnc3c(F)cccc32)cc1 gave melting point of 233 to 234 °C

Reported melting point of Nc1cccc(Cn2nnc3cc(Cl)c(Cl)cc32)c1 : 161 to 162 °C

# melting point of Cc1cc2nnn(Cc3cccc(NC(=O)NC4CCCC4)c3)c2cc1C = 290 to 292 °C

For reference, reported melting point for COc1cc(C(=O)Nc2ccc(Cn3nnc4ccccc43)cc2)cc(OC)c1OC stands at 147 to 149 °C

// melting point lookup, compound = O=C(Nc1ccc(Cn2nnc3ccccc32)cc1)c1ccc([N+](=O)[O-])cc1 , result: 245 to 246 °C

// field: melting point; key: CCCCNC(=O)Nc1cccc(Cn2nnc3cc(Cl)c(Cl)cc32)c1 ; value = 232 to 233 °C

Notebook: CCNC(=O)Nc1ccc(Cn2nnc3cc(F)c(F)cc32)cc1 , melting point read as 286 to 287 °C

For record CCCNC(=O)Nc1ccc(Cn2nnc3cc(C)c(C)cc32)cc1 [99b] the listed melting point is 190 to 192 °C

Reported melting point for O=C(Nc1ccc(Cn2nnc3cc(F)c(F)cc32)cc1)NC1CCCCC1 was 203 to 204 °C

Per the record, CCCNC(=O)Nc1ccc(Cn2nnc3cc(Cl)c(Cl)cc32)cc1 has melting point of 213 to 214 °C

For reference, reported melting point for O=C(Nc1cccc(Cn2nnc3cc(Cl)c(Cl)cc32)c1)c1ccc(C(F)(F)F)cc1 stands at 211 to 213 °C

The reported melting point of the compound COc1ccc(C(=O)Nc2ccc(Cn3nnc4cc(C)c(C)cc43)cc2)cc1 was 196 to 198 °C

The compound listed as CCC(=O)Nc1cccc(Cn2nnc3cc(Cl)c(Cl)cc32)c1 [36a] has a reported melting point of 145 to 146 °C

The reported value for Nc1ccc(Cn2nnc3c(F)cccc32)cc1 [12e] in terms of melting point is 164 to 167 °C

Per the record, CCC(=O)Nc1cccc(Cn2nc3cc(C)c(C)cc3n2)c1 has melting point of 178 to 182 °C

Form field melting point, entry Cc1cc2nnn(Cc3cccc(NC(=O)c4ccc(F)cc4)c3)c2cc1C : 143 to 147 °C

Field melting point (entry Cc1cc2nnn(Cc3ccc(NC(=O)NC4CCCCC4)cc3)c2cc1C [100b] ) reads 216 to 218 °C

So, CCC(C)NC(=O)Nc1cccc(Cn2nnc3cc(C)c(C)cc32)c1 (stereo not shown) ? Its melting point was 202 to 204 °C

* * *

Kindly state melting point for each of the entries shown.

Form field melting point, entry COc1ccc(C(=O)Nc2cccc(Cn3nnc4cc(C)c(C)cc43)c2)cc1 : 203 to 206 °C

Nc1ccc(C(=O)Nc2cccc(Cn3nnc4cc(Cl)c(Cl)cc43)c2)cc1 has a reported melting point of 101 to 102 °C

Value of measured melting point for the entry CCCNC(=O)Nc1cccc(Cn2nnc3cc(Cl)c(Cl)cc32)c1 : > 300 °C

The recorded melting point for CC(=O)Nc1cccc(Cn2nc3cc(C)c(C)cc3n2)c1 is 184 to 187 °C

Cc1ccc(C(=O)Nc2cccc(Cn3nnc4cc(C)c(C)cc43)c2)cc1 has a reported melting point of 211 to 212 °C

// field: melting point; key: Cc1cc2nn(Cc3ccc(N)cc3)nc2cc1C [11b] ; value = 169 to 171 °C

What the record says about Cc1cc2nn(Cc3cccc(NC(=O)NC4CCCC4)c3)nc2cc1C : melting point is 298 to 299 °C

// Nc1ccc(Cn2nc3cc(F)c(F)cc3n2)cc1 [11d] : melting point value = 149 to 150 °C

Value of melting point reported for the molecule COc1cc(C(=O)Nc2ccc(Cn3nnc4c(F)cccc43)cc2)cc(OC)c1OC [21e] is 177 to 179 °C

Recorded melting point (molecule CCC(=O)Nc1ccc(Cn2nnc3ccccc32)cc1 ): 192 to 195 °C

Briefly, melting point measured for CCC(=O)Nc1ccc(Cn2nnc3c(F)cccc32)cc1 : 244 to 246 °C

* * *

experiment: Cytotoxicity in mock-infected MDBK cells (MTT); details: cattle (Bos taurus)
Measured Metric: CC50 (µM)
Expressed in µM, but write only the number.

NC(=O)c1ncn([C@@H]2O[C@H](CO)[C@@H](O)[C@H]2O)n1 [Ribav, ribavirin, reference compound] has a reported CC50 of 52

* * *

Would you mind telling me the reported melting point of each entry?

Form: molecule = Cc1ccc(C(=O)Nc2ccc(Cn3nnc4cc(F)c(F)cc43)cc2)cc1 ; melting point = 297 to 299 °C

Record summary for Cc1cc2nnn(Cc3cccc(NC(=O)c4ccc(Cl)cc4)c3)c2cc1C [53b] : reported melting point = 227 to 229 °C

Record COc1cc(NC(=O)Nc2cccc(Cn3nnc4cc(C)c(C)cc43)c2)cc(OC)c1OC , field melting point: 206 to 208 °C

Reported melting point for O=C(Nc1ccc(Cn2nnc3cc(F)c(F)cc32)cc1)c1ccc(Br)cc1 was 235 to 236 °C

In plain terms, O=C(Nc1ccc(Cn2nnc3ccccc32)cc1)c1ccc(OC(F)(F)F)cc1 has a documented melting point of 229 to 231 °C

* * *

Please go through the items and note down their melting point.

Record O=C(Nc1cccc(Cn2nnc3cc(Cl)c(Cl)cc32)c1)c1ccc(F)cc1 , field melting point: 184 to 186 °C

Sure, the documented melting point for COc1cc(C(=O)Nc2cccc(Cn3nnc4cc(C)c(C)cc43)c2)cc(OC)c1OC [51b] is 160 to 162 °C

The recorded melting point for CC(=O)Nc1cccc(Cn2nnc3cc(C)c(C)cc32)c1 is 198 to 200 °C

# compound O=C(Nc1ccc(Cn2nnc3cc(F)c(F)cc32)cc1)c1ccc(Cl)cc1 ; its melting point = 263 to 264 °C

melting point reported for this compound O=C(Nc1ccccc1)Nc1ccc(Cn2nnc3ccccc32)cc1 : 159 to 161 °C

melting point reported for this compound COc1ccc(C(=O)Nc2ccc(Cn3nnc4ccccc43)cc2)cc1 [86c] : 172 to 174 °C

The compound identified as Cc1cc2nn(Cc3cccc(NC(=O)NC4CCCCC4)c3)nc2cc1C registered its melting point at 299 to 300 °C

Per the record, CCCNC(=O)Nc1ccc(Cn2nnc3ccccc32)cc1 has melting point of 165 to 167 °C

Note to self: melting point recorded for Cc1cc2nnn(Cc3cccc(NC(=O)NC4CCCCC4)c3)c2cc1C was 233 to 235 °C

The reported value for O=C(Nc1ccc(Cn2nnc3cc(F)c(F)cc32)cc1)c1ccc(F)cc1 in terms of melting point is 241 to 242 °C

Recorded result, Cc1cc2nn(Cc3cccc(NC(=O)c4ccc(F)cc4)c3)nc2cc1C [25b] , melting point: 211 to 212 °C

Consider CCNC(=O)Nc1cccc(Cn2nnc3cc(C)c(C)cc32)c1 . Its measured melting point is 271 to 273 °C

The reported melting point of the compound Cc1cc2nnn(Cc3cccc(NC(=O)c4ccc(C#N)cc4)c3)c2cc1C was 242 to 247 °C

Noted for Cc1cc2nnn(Cc3cccc(NC(=O)c4ccc([N+](=O)[O-])cc4)c3)c2cc1C : its melting point reads 227 to 230 °C

Quick note, melting point for Cc1cc2nnn(Cc3ccc(NC(=O)c4ccc([N+](=O)[O-])cc4)cc3)c2cc1C landed at 192 to 194 °C

Entry O=C(Nc1ccc(Cn2nnc3cc(F)c(F)cc32)cc1)c1ccc([N+](=O)[O-])cc1 ; melting point = 240 to 242 °C

# compound CCCCNC(=O)Nc1cccc(Cn2nnc3cc(C)c(C)cc32)c1 ; its melting point = 195 to 197 °C

Record summary for CC(=O)Nc1ccc(Cn2nnc3ccccc32)cc1 [79c] : reported melting point = 187 to 189 °C

Reported melting point of O=C(Nc1cccc(Cn2nnc3cc(Cl)c(Cl)cc32)c1)NC1CCCC1 : 231 to 232 °C

GET /value?item= CCCNC(=O)Nc1cccc(Cn2nc3cc(C)c(C)cc3n2)c1 &field=melting point returns 204 to 206 °C

Recorded melting point (compound COc1ccc(C(=O)Nc2cccc(Cn3nnc4cc(Cl)c(Cl)cc43)c2)cc1 ): 221 to 223 °C

Quick note, melting point for CCNC(=O)Nc1cccc(Cn2nnc3cc(Cl)c(Cl)cc32)c1 landed at 244 to 245 °C

Memo: O=C(Nc1ccc(Cn2nnc3c(F)cccc32)cc1)c1ccccc1 , reported melting point: 214 to 217 °C

The compound listed as O=C(Nc1cccc(Cn2nnc3cc(Cl)c(Cl)cc32)c1)c1ccc([N+](=O)[O-])cc1 has a reported melting point of 217 to 218 °C

Query Cc1cc2nnn(Cc3cccc(NC(=O)Nc4ccc(F)cc4)c3)c2cc1C yields melting point of 245 to 247 °C

// field: melting point; key: CC(=O)Nc1ccc(Cn2nnc3cc(F)c(F)cc32)cc1 ; value = 242 to 243 °C

Reported melting point ( Cc1cc2nn(Cc3cccc(NC(=O)c4ccc([N+](=O)[O-])cc4)c3)nc2cc1C ) = 184 to 187 °C

melting point recorded for this compound, COc1cc(C(=O)Nc2cccc(Cn3nnc4cc(Cl)c(Cl)cc43)c2)cc(OC)c1OC [41a] , is 142 to 144 °C

// field: melting point; key: O=C(Nc1ccc(Cn2nnc3cc(Cl)c(Cl)cc32)cc1)NC1CCCCC1 ; value = 130 to 132 °C

Data point: CCCCNC(=O)Nc1ccc(Cn2nnc3cc(F)c(F)cc32)cc1 ; melting point = 193 to 194 °C

Query Cc1cc2nnn(Cc3cccc(NC(=O)c4ccc(C(F)(F)F)cc4)c3)c2cc1C yields melting point of 201 to 203 °C

// Cc1cc2nn(Cc3cccc(NC(=O)c4ccc(Cl)cc4)c3)nc2cc1C : melting point value = 246 to 247 °C

melting point for CCC(=O)Nc1cccc(Cn2nnc3cc(C)c(C)cc32)c1 is 155 to 157 °C

melting point in this record for O=C(Nc1ccc(Cn2nnc3ccccc32)cc1)NC1CCCCC1 : 141 to 143 °C

Note to self: melting point recorded for O=C(Nc1ccc(Cn2nnc3c(F)cccc32)cc1)c1ccc([N+](=O)[O-])cc1 was 272 to 274 °C

Per the record, CCC(=O)Nc1ccc(Cn2nnc3cc(F)c(F)cc32)cc1 has melting point of 240 to 242 °C
